Below are GI50 values recorded for 786-0 renal.

SMILES	GI50
O=C(Nc1ccc(F)cc1)c1c(NC(=O)C(F)(F)F)sc2c1CCCCC2	2.43 µM
O=c1nc(Nc2cccc(Cl)c2)oc2cc(Cl)oc(=O)c12	20.2 µM
O=C(Nc1ccc(Cl)cc1)c1ccc(NC2=C(Cl)C(=O)N(Cc3ccccc3)C2=O)cc1	10.8 µM
Clc1ccc2[nH]cc(-c3nc(-c4c[nH]c5ncccc45)cs3)c2c1	2.34 µM
CC1(C)OC(=O)C=C([O-])O1.CC1(C)OC(=O)C=C([O-])O1.O=S(=O)([O-])c1ccc([O-])c2ncccc12.O=S(=O)([O-])c1ccc([O-])c2ncccc12.[Ti+4]	> 100 µM
COC(=O)c1c2c(c(C)[n+]([O-])c1C)C(=O)C=C(NCc1ccc(F)c(F)c1)C2=O	1.35 µM
COc1ccc(-c2cc(/C=C3\C(=O)Nc4ccc(Cl)cc43)[nH]n2)cc1	5.28 µM

---

System: HOP-62 NSCLC
Experiment: NCI tumour cell line growth inhibition, 48 h

COMPOUND	TGI
COc1cccc(-c2ccc3c4c2O[C@H]2c5[nH]c6ccccc6c5C[C@@]5(O)[C@@H](C3)N(CC3CC3)CC[C@]425)c1	3.12 µM
CCOC(=O)Oc1cc2c(c(OC)c1OC)-c1ccc(SC)c(=O)cc1C(NC(=O)C(F)(F)F)CC2 (stereo unspecified)	> 100 µM
CCCCNN	> 100 µM
O=C(O)CCCCCOc1cccnc1/C=N/NC1=NCCN1	> 100 µM
CN(C)CCCN1c2nc3ccccc3cc2Sc2cc3ccccc3nc21	2.58 µM
CC(C)(C)NCc1cc(C(C)(C)C)cc(-c2ccc(Cl)cc2)c1O	20.1 µM
O=C(NCCC(F)(F)C(F)(F)C(F)(F)C(F)(F)F)NC1OC(CO)C(O)C(O)C1O (stereo unspecified)	> 100 µM
COc1ccc(/C=C/c2nc(NCCCN(C)C)c3ccccc3n2)cc1	9.74 µM
ClC(Cl)c1nc(-c2cccnc2)n2nc(-c3ccccc3)cc2n1	6.44 µM
COc1c(C(=O)O)oc2c(OC)cccc12	> 100 µM
NCCCn1c2ccccc2c2c3c(c4c(c21)CCC(O)CC4)C(=O)NC3=O (stereo unspecified)	15.9 µM
CN1NC2(CCCCC2)ON=C1c1ccccc1	> 100 µM
CCCCCCCCCCN(CCCCCCCCCC)CC(=O)c1ccc2cc(Br)c3ccccc3c2c1	3.4 µM
Cc1cc(-c2[nH]c(C(=O)O)cc2I)on1	> 100 µM
COC1CC2C=C(C)/C=C/C=C/C(=O)NC(c3ccccc3)C/C=C/CCC(O)CC(=O)C2=C1O (stereo unspecified)	1.53 µM
COC(=O)c1c2c(c(C)[n+]([O-])c1C)C(=O)C=C(NCc1ccc(F)c(F)c1)C2=O	2.5 µM
Cc1nc2c(n1C(C)(C)C)C(=O)c1ccccc1C2=O	> 100 µM
O=c1/c(=C\c2ccccc2)sc2n1C(c1ccccc1)C1(O)CCCCC1N=2 (stereo unspecified)	> 100 µM
Cc1cc(O)c2c(c1O)C(=O)C13C(=C2O)C(=O)C2C(O)C1C1C(O)C3C(=O)C3=C(O)c4c(O)cc(C)c(O)c4C(=O)C321 (stereo unspecified)	0.526 µM
CC(=O)[C@@H]1CCC=C2CC[C@]3(C)[C@@H](CC[C@@H]4[C@@]5(C)CCCNC(C)(C)[C@@H]5CC[C@]43C)[C@H]21	3.4 µM
NNc1cccc(/C=C/c2ccccc2)cc1=O	> 100 µM

---

The compounds listed here are annotated with their GI50.
Test system: CCRF-CEM leukemia

COMPOUND	GI50
NC1CCN(c2nc(Nc3cccc(C(F)(F)F)c3)c3c(=O)[nH]ccc3n2)CC1	1.26 µM
Nc1nnc2cc(Cl)ccc2n1	> 100 µM
CC(=O)[C@@H]1CCC=C2CC[C@]3(C)[C@@H](CC[C@@H]4[C@@]5(C)CCCNC(C)(C)[C@@H]5CC[C@]43C)[C@H]21	2.27 µM
O=S(=O)(NCC1CCC(CNc2ccc(Cl)cc2)CC1)c1ccc(-c2ccccc2)cc1 (configuration not stated)	> 50 µM
N#Cc1c(-c2ccccc2)cc(-c2ccc(Nc3nc(Nc4ccc(Cl)cc4)nc(Nc4ccc(Cl)cc4)n3)cc2)nc1N	3.1 µM
CC1(C)OC(=O)C=C([O-])O1.CC1(C)OC(=O)C=C([O-])O1.O=S(=O)([O-])c1ccc([O-])c2ncccc12.O=S(=O)([O-])c1ccc([O-])c2ncccc12.[Ti+4]	69.8 µM
O=c1nc(Nc2cccc(Cl)c2)oc2cc(Cl)oc(=O)c12	2.87 µM
COc1ccccc1NC(=O)n1nc(N)c2ccccc21	> 100 µM
O=C(Nc1ccc(F)cc1)c1c(NC(=O)C(F)(F)F)sc2c1CCCCC2	1.5 µM
COc1ccc(/C=C/c2nc(NCCCN(C)C)c3ccccc3n2)cc1	2.02 µM
O=C(NCCCNc1cc(-c2cn(-c3ccccc3)nc2-c2cccc(O)c2)ccn1)c1ccccc1	3.14 µM
COc1cc(/C=C\[N+](=O)[O-])ccc1OCc1ccccc1	3.13 µM

---

Test system: RPMI-8226 leukemia
Assay: NCI tumour cell line growth inhibition, 48 h
Property: TGI; scope: individual molecules
ENDPOINT_NAME: TGI (µM)

MOLECULE	STUDY_TARGET	RELATION	TEST_VALUE
Cc1c(C(=O)NCCO)[n+](=O)c2cc(Cl)ccc2n1[O-]	RPMI-8226 leukemia	>	100
CCOc1cc(NC(C)=O)ccc1C(=O)NN1C(=O)C(Oc2ccccc2)C1c1ccccc1 (stereo not given)	RPMI-8226 leukemia	>	100
Cn1c(=O)nc2n(-c3cccc(F)c3)c3ccccc3nc-2c1=O	RPMI-8226 leukemia	=	72.6
Cc1ccc(OCC2OC(n3cnc4nc(Cl)nc(Cl)c43)CC2Oc2ccc(C)cc2)cc1 (stereo not given)	RPMI-8226 leukemia	=	9.35
CC12CCC(C(=O)O1)C(C)(C)O2 (stereo not given)	RPMI-8226 leukemia	>	100
CN1CCCN(C)C1c1cc([N+](=O)[O-])ccc1O	RPMI-8226 leukemia	>	100
O=c1nc(Nc2cccc(Cl)c2)oc2cc(Cl)oc(=O)c12	RPMI-8226 leukemia	=	43.1
CC(=O)O[C@H]1CC[C@@]2(C)C(=CC[C@H]3[C@@H]4C/C(=C\c5cccc(OCCN6CCOCC6)c5)[C@H](OC(C)=O)[C@@]4(C)CC[C@@H]32)C1	RPMI-8226 leukemia	=	9.92
CN(C)CCCN1c2nc3ccccc3cc2Sc2cc3ccccc3nc21	RPMI-8226 leukemia	=	2.08
COc1ccc2cc1Oc1ccc(cc1)C(Sc1ccccc1)CCOC(=O)CC2 (stereo not given)	RPMI-8226 leukemia	>	100

---

Reported TGI is given for each of the following compounds.
Test system: LOX IMVI melanoma
Test: NCI tumour cell line growth inhibition, 48 h
ENDPOINT_NAME: TGI (µM)

COMPOUND	RELATION	TEST_VALUE
Cc1ccnc2[nH]c(-c3cccc(Cl)c3)cc(=O)c12	>	100
Cc1c2c(cc3c1[nH]c1ccccc13)C=NCC2	=	36.6
CCOC(=O)c1sc2nc(SC)nc3c2c1NC(=O)CN3c1cccc(F)c1	=	38.8
CCOC(=O)c1[nH]c(-c2ccc(Cl)cc2)cc1-c1cccnc1	>	100
COc1ccc(/C=C/c2nc(NCCCN(C)C)c3ccccc3n2)cc1	=	3.42
O=c1cc2ccccc2nn1Cc1ccccc1Cl	>	100
CC/C=C\C[C@H](O)C/C=C1/C(=O)C=C[C@@H]1C/C=C\CCCC(=O)N(C)C	=	1.54
Clc1ccc(Cc2nc3ccc(CCN4CCN(c5ccccc5)CC4)cc3[nH]2)cc1	=	27
COc1ccc(C(N)=O)cc1N=NN(C)C	>	100
Cc1c(C(=O)NCCO)[n+](=O)c2cc(Cl)ccc2n1[O-]	>	100
CN(C)c1ccc(/C=C2\N=C(NN)NC2=O)cc1	>	100
O=C1O/C(=C(\Br)c2cccc3ccccc23)c2ccccc21	>	100
CN(C(=O)Cc1ccc(Cl)c(Cl)c1)[C@H]1CCCC[C@@H]1[N+]1(C)CCCC1	>	100
COc1cc(C2SCC(=O)N2c2ccc(-n3c(-c4ccccc4)nc4ccccc4c3=O)cc2)ccc1O (stereo not drawn)	>	100
COc1cc2c3c(n(CCCNCCN)c(=O)c2cc1OC)-c1cc2c(cc1C3=O)OCO2	=	0.244
C=C=C(CC)C(C(=O)OC)N(CC)CC (stereo not drawn)	>	100
C(CCC[Te][Te]CCCCCCOC1CCCCO1)CCOC1CCCCO1 (stereo not drawn)	=	35.1
O=C(/C=C/c1ccsc1)c1ccco1	=	14.5
CCOc1cc2c(NCCCN(CCO)CCO)ncnc2c(OCC)c1OCC	>	100
CC(C)C(C/C=C1\CC(CO)(COC(=O)c2ccccc2)OC1=O)C(C)C (stereo not drawn)	=	54.6
CN(C)N1C(=O)c2ccccc2NC1c1ccccc1 (stereo not drawn)	>	100
CC(=O)O[C@H]1CC[C@@]2(C)C(=CC[C@H]3[C@@H]4C/C(=C\c5cccc(OCCN6CCOCC6)c5)[C@H](OC(C)=O)[C@@]4(C)CC[C@@H]32)C1	=	18.4
O=C(Nc1ccc(F)cc1)c1c(NC(=O)C(F)(F)F)sc2c1CCCCC2	=	13.2
CN(C)CCCN1c2nc3ccccc3cc2Sc2cc3ccccc3nc21	=	3.16
CCCCNN	>	100
NC1CCN(c2nc(Nc3cccc(C(F)(F)F)c3)c3c(=O)[nH]ccc3n2)CC1	=	2.72
CCOc1cc(NC(C)=O)ccc1C(=O)NN1C(=O)C(Oc2ccccc2)C1c1ccccc1 (stereo not drawn)	>	100
COc1ccc2cc1Oc1ccc(cc1)C(Sc1ccccc1)CCOC(=O)CC2 (stereo not drawn)	>	100
COc1cccc(-c2ccc3c4c2O[C@H]2c5[nH]c6ccccc6c5C[C@@]5(O)[C@@H](C3)N(CC3CC3)CC[C@]425)c1	=	3.09
Cc1sc(C)c(Cc2c(C)sc(C)c2CCl)c1CCl	>	100
COc1ccc2c(Nc3ccc(NS(C)(=O)=O)cc3)c3ccccc3nc2c1	=	2.34
Cn1c(=O)nc2n(-c3cccc(F)c3)c3ccccc3nc-2c1=O	=	61.8
CCOC(=O)C1(Cc2ccccc2)CCCCCN1 (stereo not drawn)	>	100
O=C1CC(=O)c2c(O)cc(O)c(c2O)-c2c(ccc(O)c2O)C2=CC(=O)c3c(O)cc(O)c(c3O2)-c2c1ccc(O)c2O (tested in a mixture with another compound)	>	50
N#Cc1c(-c2ccccc2)cc(-c2ccc(Nc3nc(Nc4ccc(Cl)cc4)nc(Nc4ccc(Cl)cc4)n3)cc2)nc1N	=	4.33
O=C(O)CCCCCOc1cccnc1/C=N/NC1=NCCN1	>	100
O=C(CN1CCN(Cc2ccccc2)CC1)N1CCCn2c1nc1ccccc1c2=O	>	100
O=C1CSC(/C(=C\c2ccc(Cl)cc2)c2nc3ccccc3[nH]2)=N1	=	32.4
CN1C(=S)C(c2ccccc2)Sc2ccccc21 (stereo not drawn)	>	100
COC(=O)c1sc(C(=O)OC)c2c1CSC2	>	100
COc1ccc2c(c1OC)C1=C(C2=O)c2cc3c(cc2CCN1)OCO3	=	61.1
CC(=O)N1CCc2c([nH]c3ccc(Br)cc23)C1c1ccccc1 (stereo not drawn)	>	10
Clc1ccc2sc(-n3ccc4ccccc43)nc2c1	>	100

The measurements presented in this section are drawn from PubChem BioAssay (NCI).
